Test system: Pseudomonas aeruginosa ATCC 9027
Assay: ≥ marks a high value that may be exact or a test limit, other limits are often not marked, values filed in µg/mL are converted to µM
Below is a list of entries, each paired with its recorded MIC value.
Write the number in µM without appending the unit.

So what's the measured MIC for this one? CC(C)C[C@H](NC(=O)[C@H](CCCCN)NC(=O)[C@H](Cc1ccccc1)NC(=O)[C@H](CC(C)C)NC(=O)[C@@H](NC(=O)[C@H](CCCCN)NC(=O)[C@@H](N)CCCCN)C(C)C)C(=O)N[C@@H](CCCCN)C(=O)N[C@@H](Cc1ccccc1)C(=O)N[C@@H](CCCCN)C(N)=O
1.22

Data request, read-out MIC, for CC(C)C[C@H](NC(=O)[C@H](CCCCN)NC(=O)[C@H](CC(C)C)NC(=O)[C@H](CCCCN)NC(=O)[C@H](C)NC(=O)[C@H](CC(C)C)NC(=O)[C@H](CCCCN)NC(=O)[C@H](C)NC(=O)[C@H](CC(C)C)NC(=O)[C@H](CC(C)C)NC(=O)[C@H](CCCCN)NC(=O)[C@H](C)NC(=O)[C@@H](N)Cc1ccccc1)C(N)=O
34.3

# MIC lookup, item CC[C@H](C)[C@H](NC(=O)[C@H](CCCCN)NC(=O)[C@H](CCCCN)NC(=O)[C@@H](NC(=O)[C@@H](NC(=O)[C@H](CC(=O)O)NC(=O)[C@H](Cc1ccccc1)NC(=O)[C@H](CC(C)C)NC(=O)[C@H](C)N)[C@@H](C)CC)[C@@H](C)CC)C(=O)N[C@@H](C)C(=O)N[C@@H](CCC(=O)O)C(=O)N[C@@H](CO)C(=O)N[C@@H](Cc1ccccc1)C(N)=O
343

Which MIC is listed for CC(C)[C@H](NC(=O)[C@H](CCCCN)NC(=O)[C@H](Cc1ccccc1)NC(=O)[C@@H](NC(=O)[C@@H](NC(=O)[C@H](CCCCN)NC(=O)[C@@H](N)CCCCN)C(C)C)C(C)C)C(=O)N[C@@H](CCCCN)C(=O)N[C@@H](Cc1ccccc1)C(=O)N[C@@H](Cc1cnc[nH]1)C(=O)O ?
7.94

---

Test system: Bacillus cereus
recorded-metric: MIC (µM)
Give the value, in units of µM, as a plain number.

// lookup MIC | system=Bacillus cereus | key= CC[C@H](C)[C@H](NC(=O)[C@H](CC(=O)O)NC(=O)[C@H](Cc1ccccc1)NC(=O)[C@H](CC(C)C)NC(=O)CN)C(=O)N[C@H](C(=O)N[C@@H](CCCCN)C(=O)N[C@@H](CCCCN)C(=O)N[C@H](C(=O)N[C@@H](C)C(=O)N[C@@H](CO)C(=O)N[C@H](C(=O)N[C@H](C(=O)NCC(=O)NCC(=O)N[C@@H](CC(C)C)C(N)=O)C(C)C)C(C)C)C(C)C)[C@@H](C)CC
15.5

---

Reported MIC values, Escherichia coli CCARM 1229.
Numeric answer only, unit µM assumed.

See these solved cases before continuing.
>>> meas_value("CC(C)C[C@H](NC(=O)[C@H](Cc1c[nH]c2ccccc12)NC(=O)[C@H](CC(C)C)NC(=O)[C@@H](N)CCCN=C(N)N)C(=O)N[C@@H](C)C(=O)N[C@@H](Cc1c[nH]c2ccccc12)C(=O)N[C@@H](CCCCN)C(=O)N[C@@H](CCCN=C(N)N)C(=O)N[C@@H](CCCN=C(N)N)C(N)=O")
4
>>> meas_value("CC[C@H](C)[C@H](NC(=O)[C@H](CCCCN)NC(=O)[C@H](CCCCN)NC(=O)[C@@H](NC(=O)[C@H](C)NC(=O)[C@H](CCC(=O)O)NC(=O)[C@H](Cc1cnc[nH]1)NC(=O)[C@@H](NC(=O)CNC(=O)[C@H](CCC(N)=O)NC(=O)[C@H](Cc1ccccc1)NC(=O)[C@@H](NC(=O)[C@H](CCCCN)NC(=O)[C@H](CCCCN)NC(=O)[C@H](CC(C)C)NC(=O)[C@H](C)NC(=O)[C@H](CC(N)=O)NC(=O)[C@@H](N)CC(C)C)C(C)C)[C@@H](C)CC)[C@@H](C)CC)C(N)=O")
2

// switching to the query compound
Under Escherichia coli CCARM 1229: MIC value of CC[C@H](C)[C@H](NC(=O)[C@H](C)NC(=O)[C@H](CC(C)C)NC(=O)[C@H](Cc1c[nH]c2ccccc12)NC(=O)[C@H](CC(C)C)NC(=O)[C@@H](N)CCCN=C(N)N)C(=O)NCC(=O)N[C@@H](CCCN=C(N)N)C(=O)N[C@@H](CCCN=C(N)N)C(N)=O ?
8

---

Tested on: Staphylococcus epidermidis ATCC 12228
recorded-metric: MIC

GET /values?readout=MIC&item= CC(C)C[C@H](NC(=O)CNC(=O)CNC(=O)CNC(=O)[C@H](C)NC(=O)[C@H](CC(C)C)NC(=O)[C@H](CC(N)=O)NC(=O)CNC(=O)[C@H](CC(C)C)NC(=O)[C@H](CC(C)C)NC(=O)CNC(=O)[C@@H](NC(=O)[C@@H](NC(=O)[C@H](CO)NC(=O)[C@H](CC(N)=O)NC(=O)[C@H](CC(C)C)NC(=O)[C@H](CC(C)C)NC(=O)CNC(=O)[C@H](CO)NC(=O)[C@@H](NC(=O)[C@H](CC(C)C)NC(=O)CN)C(C)C)C(C)C)[C@@H](C)O)C(=O)O [GLVSGLLNSVTGLLGNLAGGGL]
> 100 µM

---

Observed MIC for Salmonella enterica subsp. enterica serovar Pullorum ATCC 7913, reported per entry below.
Note: unit µM is implicit; provide only the numeric part.

Below, each entry is followed by its recorded MIC result.
>>> meas_value("NCC(=O)N[C@@H](CCCN=C(N)N)C(=O)N[C@@H](Cc1c[nH]c2ccccc12)C(=O)N[C@@H](CCCN=C(N)N)C(=O)N[C@@H](Cc1c[nH]c2ccccc12)C(=O)N[C@@H](Cc1c[nH]c2ccccc12)C(=O)N[C@@H](Cc1c[nH]c2ccccc12)C(=O)N[C@@H](CCCN=C(N)N)C(=O)N[C@@H](Cc1c[nH]c2ccccc12)C(=O)N[C@@H](CCCN=C(N)N)C(=O)N[C@@H](Cc1c[nH]c2ccccc12)C(N)=O")
2
>>> meas_value("NC(=O)[C@H](CCCN=C(N)N)NC(=O)[C@H](Cc1ccccc1)NC(=O)[C@H](Cc1ccccc1)NC(=O)[C@H](CCCN=C(N)N)NC(=O)[C@H](CCCN=C(N)N)NC(=O)[C@H](Cc1ccccc1)NC(=O)[C@H](CCCN=C(N)N)NC(=O)[C@H](CCCN=C(N)N)NC(=O)[C@H](Cc1ccccc1)NC(=O)[C@H](Cc1ccccc1)NC(=O)[C@@H](N)CCCN=C(N)N")
4

Request body: readout MIC, system Salmonella enterica subsp. enterica serovar Pullorum ATCC 7913, query CC[C@H](C)[C@H](NC(=O)[C@H](CCCN=C(N)N)NC(=O)[C@H](C)NC(=O)[C@H](C)N)C(=O)N[C@H](C(=O)N[C@@H](CC(C)C)C(=O)N[C@@H](CCCN=C(N)N)C(=O)NCC(=O)N[C@@H](CCCN=C(N)N)C(=O)N[C@@H](Cc1ccccc1)C(=O)N[C@@H](CCCN=C(N)N)C(N)=O)[C@@H](C)CC . Return the value.
4

---

Please consider the recorded MIC for Klebsiella pneumoniae ATCC 700603 in what follows.
Report as a plain number; the unit µM is understood.

Solved entries:
>>> meas_value("CC[C@H](C)[C@H](N)C(=O)N[C@@H](CC(=O)O)C(=O)N[C@@H](Cc1c[nH]c2ccccc12)C(=O)N[C@@H](CCCCN)C(=O)N[C@@H](CCCCN)C(=O)N[C@@H](CC(C)C)C(=O)N[C@@H](CC(C)C)C(=O)N[C@@H](CC(=O)O)C(=O)N[C@@H](C)C(=O)N[C@@H](C)C(=O)N[C@@H](CCCCN)C(=O)N[C@@H](CCC(N)=O)C(=O)N[C@H](C(=O)N[C@@H](CC(C)C)C(N)=O)[C@@H](C)CC")
64
>>> meas_value("CC[C@H](C)[C@@H]1NC(=O)CNC(=O)[C@H](CCCN=C(N)N)NC(=O)[C@H](Cc2ccc(O)cc2)NC(=O)[C@@H]2CSSC[C@H](NC1=O)C(=O)N[C@@H](Cc1ccc(O)cc1)C(=O)N[C@@H](CCCN=C(N)N)C(=O)N[C@@H](CCCN=C(N)N)C(=O)N[C@H](C(=O)N[C@@H](CCCN=C(N)N)C(=O)O)CSSC[C@H](NC(=O)[C@H](Cc1c[nH]c3ccccc13)NC(=O)[C@@H](N)CCCCN)C(=O)N[C@@H](C)C(=O)N[C@@H](CCCN=C(N)N)C(=O)N[C@@H](C(C)C)C(=O)N2")
0.228
>>> meas_value("CC[C@H](C)[C@H](NC(=O)[C@H](CCCCN)NC(=O)[C@H](CCCCN)NC(=O)[C@H](C)NC(=O)[C@@H](NC(=O)[C@H](C)NC(=O)[C@H](CC(C)C)NC(=O)[C@H](CC(C)C)NC(=O)[C@H](C)NC(=O)[C@H](CCCCN)NC(=O)[C@H](CC(C)C)NC(=O)[C@H](CC(N)=O)NC(=O)CN)C(C)C)C(=O)N[C@@H](CC(C)C)C(N)=O")
16
>>> meas_value("CC(C)C[C@H](NC(=O)[C@H](CO)NC(=O)[C@H](CO)NC(=O)[C@H](CO)NC(=O)[C@H](CCCN=C(N)N)NC(=O)[C@@H](NC(=O)[C@H](CCCN=C(N)N)NC(=O)[C@H](Cc1c[nH]c2ccccc12)NC(=O)[C@H](CS)NC(=O)[C@H](CC(N)=O)NC(=O)[C@H](CCCN=C(N)N)NC(=O)[C@H](Cc1ccccc1)NC(=O)[C@H](C)NC(=O)[C@H](CCCCN)NC(=O)[C@H](Cc1c[nH]c2ccccc12)NC(=O)[C@H](CCCN=C(N)N)NC(=O)[C@H](Cc1c[nH]c2ccccc12)NC(=O)[C@H](C)N)C(C)C)C(=O)O")
55.4
>>> meas_value("CC[C@H](C)[C@H](N)C(=O)N[C@@H](CC(N)=O)C(=O)N[C@@H](CC(C)C)C(=O)N[C@@H](CCCCN)C(=O)N[C@@H](C)C(=O)N[C@H](C(=O)N[C@H](C(=O)N[C@@H](C)C(=O)N[C@@H](CC(C)C)C(=O)N[C@@H](C)C(=O)N[C@@H](CCCCN)C(=O)N[C@@H](CCCCN)C(=O)N[C@@H](CC(C)C)C(=O)N[C@@H](CC(C)C)C(=O)O)[C@@H](C)O)[C@@H](C)CC")
26.5

State the recorded MIC for this entry: CC[C@H](C)[C@H](N)C(=O)N[C@@H](CC(N)=O)C(=O)N[C@@H](Cc1c[nH]c2ccccc12)C(=O)N[C@@H](CC(C)C)C(=O)N[C@@H](CCCCN)C(=O)N[C@@H](CC(C)C)C(=O)NCC(=O)N[C@@H](CCCCN)C(=O)N[C@@H](CCSC)C(=O)N[C@H](C(=O)N[C@H](C(=O)N[C@@H](CC(=O)O)C(=O)N[C@@H](C)C(=O)N[C@@H](CC(C)C)C(N)=O)[C@@H](C)CC)C(C)C
4

Could you tell me which MIC is on file for CC(=O)N[C@@H](CCCCN)C(=O)N[C@@H](Cc1ccccc1)C(=O)N[C@@H](CC(C)C)C(=O)N[C@@H](CCCCN)C(=O)N[C@@H](CC(C)C)C(=O)N[C@@H](CCCCN)C(=O)N[C@@H](Cc1c[nH]c2ccccc12)C(=O)N[C@@H](CC(C)C)C(=O)N[C@@H](CCCCN)C(=O)N[C@@H](CO)C(=O)N[C@@H](Cc1c[nH]c2ccccc12)C(=O)N[C@@H](CCCCN)C(=O)N[C@@H](CC(N)=O)C(=O)N[C@@H](Cc1ccccc1)C(=O)N[C@@H](CCCCN)C(N)=O ?
25

For the molecule CC[C@H](C)[C@H](NC(=O)CNC(=O)[C@H](C)NC(=O)[C@@H](NC(=O)[C@H](CC(C)C)NC(=O)[C@H](CCCCN)NC(=O)[C@@H](NC(=O)[C@@H](N)CC(C)C)C(C)C)C(C)C)C(=O)N[C@@H](CCCCN)C(=O)N[C@@H](CCCCN)C(=O)N[C@@H](Cc1ccccc1)C(=O)N[C@@H](CC(C)C)C(=O)N[C@@H](CCCCN)C(=O)N[C@@H](Cc1c[nH]c2ccccc12)C(=O)N[C@@H](CCCCN)C(N)=O , what MIC is on record?
1.13
